parameterMeasured: melting point

Example results:
Nc1nc(CCc2ccccc2)cc(C2CCN(C(=O)c3ccccc3)CC2)n1    104 to 106 °C
CCCOc1ccc(NC=C(C(=O)OCC)C(=O)OCC)cc1C1=NC(=O)C2=NN=NC2=N1    226 to 227 °C
CC(C)(C)OC(=O)N1C[C@@H]2OCc3cnnn3[C@H]2C1    155 to 157 °C
CCc1cccc(CC)c1NCC(=O)NC(=S)NNC    166 °C
COc1ccc(N2CC(=O)N(c3ccc(OC)nc3-c3ccc(N(C)C)cc3)CC2=O)cc1    138 to 139 °C
Cc1nc2cnccc2n1-c1ccccc1    134 to 136 °C
CCCC1c2c(ccc(C(C)=O)c2O)OC1CSc1ccc(C(=O)CCC(=O)O)cc1 (stereo not given)    110 to 112 °C
CCCCc1nn2cc(CC)nc2n1Cc1ccc(-c2ccccc2-c2nnn[nH]2)cc1    > 100 °C

## Task Query (compound): OC(Cc1ccc(Cl)cc1Cl)(Cn1ccnc1)c1ccc(F)cc1 (stereo not given) ; field requested: melting point
## Result 178 to 179 °C

## Task Query (compound): CCc1c2c(nc3cc(F)cc(F)c13)-c1cc3c(c(=O)n1C2)COC(=O)CC3(O)CC (stereo not given) ; field requested: melting point
## Result 255 °C

###

In this section we review reported melting point values for a set of compounds.

Example results:
O=S1CCN(c2nc(N3CCNCC3)cc3c(F)cccc23)CC1    213 to 215 °C
CCCN(CCC)C1CCc2cc(NC(C)=O)ccc2C1 (stereo unspecified)    119 to 121 °C
CCC12CCCN3CCC4(C(=C(C(=O)OC)C1)Nc1ccccc14)C32 (stereo unspecified)    124 to 125 °C
CNC(=S)C1(c2cccc(C)n2)SCCCS1    168 °C
CCCc1c(OCCCOc2ccccc2C(=O)NCCCCc2cccnc2)ccc(C(C)=O)c1O    104 to 107 °C

## Task Query (compound): COc1cc2c3c(n(C(=O)c4ccccc4)c2cc1OC)CCC(C(=O)O)C3 (stereo unspecified) ; field requested: melting point
## Result 191 to 194 °C

## Task Query (compound): COc1cc(-c2nc(-c3ccc(N(C)C)cc3)c(C)[nH]2)ccc1OC(C)=O ; field requested: melting point
## Result 253 to 256 °C

## Task Query (compound): COc1ccccc1C(=O)c1ncccc1C ; field requested: melting point
## Result 98 to 100 °C

## Task Query (compound): O=C(O)c1cn(C2CC2)c2c(F)c(-n3cnc(-c4ccccc4)c3)c(F)cc2c1=O ; field requested: melting point
## Result 286 to 288 °C

###

In this section we review reported melting point values for a set of compounds.

## Task Query (compound): C=CCC(C(=O)O)c1ccccc1 (stereo not given) ; field requested: melting point
## Result 34 °C

###

parameterMeasured: melting point

Example results:
CCOC(=O)c1nc(N)sc1-c1cn2c(C)cccc2n1    234 to 236 °C
NC(=O)c1c(Cl)cc(Cl)c(O)c1Cl    204 to 206 °C
ClC(Cl)=C1OC(C(Cl)(Cl)Cl)Oc2ccc(-c3nnn[nH]3)cc21 (stereo not given)    222 °C
CCOC(=O)c1cn(-c2ccc(F)cc2F)c2nc(N3CCC(NC(C)=O)C3)c(F)cc2c1=O (stereo not given)    233 to 236 °C

Field: next molecule
## Task Query (molecule): CC(C)(C)c1ccc(C(O)(c2ccc(C(C)(C)C)cc2)c2ncc[nH]2)cc1 ; field requested: melting point
## Result 215 to 216 °C

###

In this section we review reported melting point values for a set of molecules.

N#Cc1ccc2[nH]c(-c3ccc(-c4ccc(C#N)c(F)c4)cc3)nc2c1    302 to 305 °C
CCN1C(=O)C(C)(C)C(=O)N(C)c2cc(CN(CCn3ccc4oc(C)cc4c3=O)Cc3cnccn3)ccc21    129 to 131 °C
CCOc1nc(C(=O)O)c2c(n1)nc(OCC)n2Cc1ccc(-c2ccccc2-c2nnn[nH]2)cc1    140 to 141 °C
CC(C)(C)OC(=O)N[C@H]1C(=O)N[C@H]1CON1C(=O)c2ccccc2C1=O (relative stereo)    218 to 219 °C
CCC1CN(Cc2ccccc2)c2c3c(nc4cccc(c24)O1)CCCC3 (stereo not drawn)    148 to 149 °C

## Task Query (molecule): CCc1cc([N+](=O)[O-])cc(C=O)c1O ; field requested: melting point
## Result 93.5 to 94 °C

## Task Query (molecule): C#CCN(Cc1ccc2nc(C)[nH]c(=O)c2c1)c1ccc(C(=O)NCC(OC(C)=O)c2ccc([N+](=O)[O-])cc2)cc1 (stereo not drawn) ; field requested: melting point
## Result 198 to 203 °C

## Task Query (molecule): O=c1c2c(O)cc(O)cc2ncn1-c1ccc(O)cc1 ; field requested: melting point
## Result 240 to 245 °C

###

parameterMeasured: melting point (°C)
Form entry: value (°C) — number only.

## Task Query (compound): Nc1nc2cc3c(cc2s1)OCO3 ; field requested: melting point
## Result 200

## Task Query (compound): CCOP(=O)(Cc1cc(C2CCCCC2)c(O)c(C2CCCCC2)c1)OCC ; field requested: melting point
## Result 120

## Task Query (compound): CC(C)(C)CC1N(C(c2ccccc2)C(O)c2ccccc2)C(C(=O)NC2CCC(O)CC2)C(c2cccc(Cl)c2F)C12C(=O)Nc1cc(Cl)ccc12 (centres undefined) ; field requested: melting point
## Result 190

## Task Query (compound): CCCCCCCCSc1nc(Nc2cc(C)c(O)c(C(C)(C)C)c2)nc(NC2CC(C)(C)NC(C)(C)C2)n1 ; field requested: melting point
## Result 133

###

parameterMeasured: melting point

CCCCN(C(=O)C(=O)O)c1cccc(NC(=O)C(=O)O)c1    232 °C
CCOC(=O)c1ccc2nccn2c1    93 to 94 °C
CC(C)CC1(C)C(=O)NCCN1Cc1ccccc1 (centres undefined)    158 to 161 °C
CCOC(=O)c1cn2c(cc(Cl)c3ccc(Cl)cc32)n1    229 to 230 °C
COc1ccc2c(c1)cc(C(=O)c1ccc(C)cc1)n2C    149 to 151 °C

## Task Query (molecule): CC(C)c1cccc(C(C)C)c1NC(=O)Cc1c(-c2ccccc2)c2cc(Cl)ccc2n1C ; field requested: melting point
## Result 279 to 280 °C

## Task Query (molecule): CCOC(=O)c1cnn(-c2cc(C)cc(C)c2)c1N ; field requested: melting point
## Result 113 to 114 °C

###

In this section we review reported melting point values for a set of compounds.

Example results:
O=C(NC1CCCC1)NS(=O)(=O)c1cccc(Cl)c1Cl    202 to 207 °C
CC(C)(C)c1cc(CCCOc2ccccc2NC(=O)NC2CCN(Cc3ccccc3)CC2)cc(C(C)(C)C)c1O    148 to 149 °C
Cc1ccc(C(=O)CC(=O)C(F)F)cc1Cl    40 to 41 °C
O=C(O)C(=O)c1ccc(OCC(=O)C2CCCCCCC2)cc1    109 to 110 °C
CC1=NC(NC(=O)Nc2cccc(C)c2)C(=O)N(CC(=O)N2CCC(C(N)=O)CC2)c2c(C)cccc21 (stereo unspecified)    197 to 198 °C

Field: next compound
## Task Query (compound): COC(=O)CCCCCCNC(=O)C(COS(C)(=O)=O)NS(=O)(=O)c1ccc(Cl)cc1 (racemic) ; field requested: melting point
## Result 77 to 82 °C

###

parameterMeasured: melting point

COc1ccc(OC(=O)N2CCCC2=O)cc1    133 to 134 °C

## Task Query (molecule): CON=C(C(=O)OC)c1ccccc1/C=C(\Cl)C(=O)O ; field requested: melting point
## Result 107 to 109 °C

## Task Query (molecule): CCCCCCCCCC(=O)OC1CCC2(CC(=O)N(CCCCN3CCN(c4nsc5ccccc45)CC3)C(=O)C2)C1 (stereo not given) ; field requested: melting point
## Result 117 to 119 °C

## Task Query (molecule): CCOC(=O)C(C)Oc1ncn(-c2cccc(F)c2)n1 (stereo not given) ; field requested: melting point
## Result 35 to 37 °C

###

In this section we review reported melting point values for a set of compounds.

Example results:
CCCC12COC(C=O)(OC1)OC2    117 to 118 °C
CN(Sc1ccccc1)C(=O)Oc1cccc2c1OC(C)(C)C2    66 °C
COc1cccc(-c2nc3cc(C4=NNC(=O)SC4C)ccc3n2CC(C)C)c1 (stereo not given)    100 to 105 °C
CC1(C(=O)c2c[nH]c3ncc(-c4cccc(N5CCN(C(=O)CC#N)CC5)c4)nc23)CCCCC1    214 to 216 °C

## Task Query (compound): Cc1c(Nc2ncccc2C(=O)O)cccc1C(F)F ; field requested: melting point
## Result 232 to 234 °C
